// reported melting point per item

QUERY: Looking for the measured melting point of CC1=NN(c2ccc(S(N)(=O)=O)cc2)C(=O)/C1=C\c1ccc(-c2cc(C)c(C)cc2[N+](=O)[O-])o1 , can you help?
RESULT: 152 to 154 °C

QUERY: Looking for the measured melting point of COC(=O)c1cccc(N2N=C(C)/C(=C/c3ccc(-c4cc(C)c(C)cc4[N+](=O)[O-])o3)C2=O)c1 , can you help?
RESULT: 205 to 207 °C

QUERY: Looking for the measured melting point of COC(=O)c1cc(C)c(C)cc1-c1ccc(/C=C2\C(=O)N(c3ccc(C(=O)O)cc3)N=C2C)o1 , can you help?
RESULT: 254 to 256 °C

QUERY: Looking for the measured melting point of CC1=NN(c2ccc(C(N)=O)c(Cl)c2)C(=O)/C1=C\c1ccc(-c2cc(C)c(C)cc2[N+](=O)[O-])o1 , can you help?
RESULT: 267 to 269 °C

QUERY: Looking for the measured melting point of CC1=NN(c2ccc(C(N)=O)cc2)C(=O)C1=Cc1ccc(-c2cc(C)c(C)cc2[N+](=O)[O-])o1 , can you help?
RESULT: 273 to 275 °C

QUERY: Looking for the measured melting point of CC1=NN(c2cccc(C(=O)O)c2)C(=O)C1=Cc1ccc(-c2cc(C)c(C)cc2[N+](=O)[O-])o1 , can you help?
RESULT: 260 to 262 °C

QUERY: Looking for the measured melting point of CC1=NN(c2ccc(C(=O)O)cc2)C(=O)/C1=C\c1ccc(-c2cc(C)c(C)cc2C#N)o1 , can you help?
RESULT: 295 to 297 °C

---

Molecular target: p300 HAT (Homo sapiens, UniProt Q09472, DEL1529-1560/M1652G)
Construct: A variant of the HAT domain of p300 (residues 1287 to 1652) was expressed as a fusion; a C-terminal peptide corresponding to residues 1653-1666 of p300; made in house; host or cells: E. coli BL21(RIL)-DE3; C-terminal peptide by solid phase synthesis
Sequence (Q09472 with tags, fused parts or gaps DEL1529-1560/M1652G limits assumed): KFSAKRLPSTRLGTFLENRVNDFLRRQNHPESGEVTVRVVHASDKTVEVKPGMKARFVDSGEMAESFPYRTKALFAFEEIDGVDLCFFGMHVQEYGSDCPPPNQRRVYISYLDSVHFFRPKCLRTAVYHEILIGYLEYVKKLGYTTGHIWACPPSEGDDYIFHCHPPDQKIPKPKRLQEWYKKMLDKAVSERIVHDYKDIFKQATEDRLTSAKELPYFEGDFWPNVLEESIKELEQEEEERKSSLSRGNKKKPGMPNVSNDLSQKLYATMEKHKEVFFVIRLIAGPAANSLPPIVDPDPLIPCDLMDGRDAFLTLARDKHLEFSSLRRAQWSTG
Test: coupled spectrophotometric p300 HAT assay
Format: biochemical
Settings: compounds at 100 μM
// reported % inhibition in initial screen per item
Express it in %; write the number only.

Examples with their reported % inhibition in initial screen follow.
QUERY: Looking for the measured % inhibition in initial screen of NC(=O)c1ccccc1NC(=O)CCC(=O)O , can you help?
RESULT: 0.0

QUERY: Looking for the measured % inhibition in initial screen of O=C(O)c1ccc(Br)c(S(=O)(=O)Nc2ccc(NC(=O)c3ccccc3)cc2)c1 , can you help?
RESULT: 0.0

QUERY: Looking for the measured % inhibition in initial screen of O=C(O)CCSc1nc2ccccc2c(=O)[nH]1 , can you help?
RESULT: 0.0

QUERY: Looking for the measured % inhibition in initial screen of COc1cccc(CNC(=O)C(=O)Nc2ccc(C(C)C)cc2)c1 , can you help?
RESULT: 0.0

QUERY: Looking for the measured % inhibition in initial screen of CC(=O)c1ccc(NS(=O)(=O)c2cccc(C(=O)Nc3cccc(C(=O)O)c3)c2)cc1 , can you help?
RESULT: 38.6

New cases:
QUERY: Looking for the measured % inhibition in initial screen of Cc1cc(C)c(S(=O)(=O)N2CCCC(C(=O)O)C2)c(C)c1 (stereo not drawn) , can you help?
RESULT: 0.0

---

Molecular target: p300 HAT (Homo sapiens, UniProt Q09472, DEL1529-1560/M1652G)
Construct: A variant of the HAT domain of p300 (residues 1287 to 1652) was expressed as a fusion; a C-terminal peptide corresponding to residues 1653-1666 of p300; made in house; host or cells: E. coli BL21(RIL)-DE3; C-terminal peptide by solid phase synthesis
Experiment: coupled spectrophotometric p300 HAT assay
Type: biochemical
Conditions: compounds at 100 μM
// reported % inhibition in initial screen per item
Express it in %; write the number only.

QUERY: Any idea what % inhibition in initial screen came out for O=C(O)CCSCC(=O)c1ccc(NS(=O)(=O)c2ccccc2)cc1 on p300 HAT (Homo sapiens, UniProt Q09472, DEL1529-1560/M1652G)?
RESULT: 0.0

New cases:
QUERY: Any idea what % inhibition in initial screen came out for Cc1nc(=O)c(-c2ccccc2)c(C)n1-c1ccccc1C(=O)O on p300 HAT (Homo sapiens, UniProt Q09472, DEL1529-1560/M1652G)?
RESULT: 0.0

QUERY: Any idea what % inhibition in initial screen came out for COc1ccc(S(=O)(=O)N2CCCC(C(=O)O)C2)cc1 (stereo not drawn) on p300 HAT (Homo sapiens, UniProt Q09472, DEL1529-1560/M1652G)?
RESULT: 0.0

---

Biological target: p300 HAT (Homo sapiens, UniProt Q09472, DEL1529-1560/M1652G)
Construct: A variant of the HAT domain of p300 (residues 1287 to 1652) was expressed as a fusion; a C-terminal peptide corresponding to residues 1653-1666 of p300; made in house; host or cells: E. coli BL21(RIL)-DE3; C-terminal peptide by solid phase synthesis
Assay: coupled spectrophotometric p300 HAT assay
Assay type: biochemical
Details: compounds at 100 μM
// reported % inhibition in initial screen per item
Express it in %; write the number only.

Examples with their reported % inhibition in initial screen follow.
QUERY: Looking for the measured % inhibition in initial screen of O=C(O)C1CCCN(S(=O)(=O)c2cccs2)C1 (stereo not drawn) , can you help?
RESULT: 0.0

QUERY: Looking for the measured % inhibition in initial screen of COc1ccc(C(CC(=O)O)c2ccc(OC)c(OC)c2)cc1OC , can you help?
RESULT: 0.0

New cases:
QUERY: Looking for the measured % inhibition in initial screen of Cc1nc(SCc2ccccc2)[nH]c(=O)c1CC(=O)O , can you help?
RESULT: 0.0
